- study system: Cytochrome P450 3A4 (Homo sapiens)
- Sequence (P08684 whole entry): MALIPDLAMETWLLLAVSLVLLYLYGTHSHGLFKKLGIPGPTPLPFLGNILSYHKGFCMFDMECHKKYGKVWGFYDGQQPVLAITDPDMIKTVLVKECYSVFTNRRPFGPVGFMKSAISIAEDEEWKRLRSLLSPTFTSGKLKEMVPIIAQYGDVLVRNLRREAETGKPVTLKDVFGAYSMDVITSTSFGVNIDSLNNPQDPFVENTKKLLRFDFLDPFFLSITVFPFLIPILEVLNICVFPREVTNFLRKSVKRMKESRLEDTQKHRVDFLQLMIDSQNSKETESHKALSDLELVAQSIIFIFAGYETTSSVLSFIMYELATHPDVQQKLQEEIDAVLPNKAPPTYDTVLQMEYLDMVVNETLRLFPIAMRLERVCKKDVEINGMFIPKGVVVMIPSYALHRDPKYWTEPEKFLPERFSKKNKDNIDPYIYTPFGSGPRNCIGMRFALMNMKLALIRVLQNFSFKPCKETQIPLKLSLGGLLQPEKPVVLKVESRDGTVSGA
- protocol description: Inhibition of human recombinant CYP3A4 assessed as biotransformation of […] measured every minute for 15 mins by fluorescence intensity assay
- Type: ADME
Exercise: for every item that follows, state its recorded Ki.
A bare number is not enough; add the unit after it.

### Prompt Please give the documented Ki of `COCO[C@H]([C@@H]1OC(C)(C)O[C@H]1COS(=O)(=O)c1ccc(C)cc1)[C@H](CNC(=O)c1ccccc1)c1ccc2c(c1)OCO2`
### Response 70 nM

### Prompt For the molecule `COCO[C@H]([C@@H]1OC(C)(C)O[C@H]1CO[Si](C)(C)C(C)(C)C)[C@H](CNC(=O)c1ccccc1)c1ccc2c(c1)OCO2` , give its measured Ki value.
### Response 30 nM

### Prompt In one line, give reported Ki of the entry `COCO[C@H]([C@@H]1OC(C)(C)O[C@H]1CO)[C@H](CNC(=O)c1ccccc1)c1ccc2c(c1)OCO2` .
### Response 1780 nM

### Prompt Give Ki for `COCO[C@H]([C@@H]1OC(C)(C)O[C@H]1CO[Si](C)(C)C(C)(C)C)[C@H](CNC(=O)OC(C)(C)C)c1ccc2c(c1)OCO2`
### Response 240 nM

Cited source for all entries: ChEMBL document CHEMBL1156289
